- Test name: protein stability index of a GFP-peptide fusion (yeast GPS) (PSI 1-4); higher = more stable; sorted into four equal gates, so the index is relative within each strain
- Condition: san1∆
Where protein stability index equals or exceeds 3, the correct label is T; where it does not, the label is F.

Example cases with answers are listed next.
Sequence	Class
NGVPGQALDAVRMRLAQ [MED8]	F
NAASQQPTPRSASNTAK [GAL11]	F
DTTVNDCLDKLLNDECT [SNF2]	T
KKCHRLLWTPKKLEITS [RPR2]	F

**Query** Exam item: decide whether the reported protein stability index for VHPDYLYGAITEDRYNE [FAS2] is at least 3.
**Result** F

---

- Test name: protein stability index of a GFP-peptide fusion (yeast GPS) (PSI 1-4); higher = more stable; sorted into four equal gates, so the index is relative within each strain
- Condition: pdr5∆
Endpoint name: protein stability index
Answers are plain numbers.

Sequence	Readout number
MTAAVTSSNIVLETHES [RPT6]	2.78

Provide reported protein stability index for each item, in the same order as listed.
1. TYEAIEITDAYCFAKND [YMR129W/POM152]
2. LKDLMDLCDVVESKFTE [RPC19]
3. LPQSEWKAPSSIVLDSE [DIS3]
4. KPPSSAFNFSFNTSRNV [YAR002W/NUP60]

**Result**
1: 2.66; 2: 3.5; 3: 3.34; 4: 3.18

Provide protein stability index for all items below, preserving their order.
1. LGKGGAKRHRKILRDNI [HHF1]
2. NPMVPSSVNEDTFLPPP [PRP8]
3. GSDEAYVKDARKDTVSR [RPC40]
4. IHSGVLSSIESDLKKRE [YMR153W/NUP53]

**Result**
3.21
3.32
3.17
3.17

Your task in this section: give protein stability index for each listed record.
1. SLSRDFVMKTRRRKGIS [SNU114]
2. SVIVDSKVTVPPSKHST [ESC2]
3. MDIILGIRVQDSVILAS [PRE1]
4. SSNSQQSTPQPDDMVEI [ITC1]
5. PKTGKVERSEAISKKDL [SEC65]

**Result**
[3.31, 2.93, 1.62, 2.74, 3.46]

---

- Test name: protein stability index of a GFP-peptide fusion (yeast GPS) (PSI 1-4); higher = more stable; sorted into four equal gates, so the index is relative within each strain
- Condition: pdr5∆
Tag: y if measured protein stability index is not below 3, n if it is.

The examples below pair each entry with its known result.
Sequence	Class
AQAQAQAQAQAQAQAQA [GAL11]	y
SEKKDTDGADENVQIGE [SRB4]	y

**Query** In plain terms: is recorded protein stability index at least 3 for MKFQESLKKVDEIKAQR [SMC4] ?
**Result** y

**Query** Form field: protein stability index at least 3? Entry: EALVERRRAFKRSQKKH [RPB4]
**Result** y

**Query** Does the sequence PSEILHLILDKLNQKYD [GRR1] have recorded protein stability index that is 3 or more?
**Result** n

**Query** Entry SILSFVDKELLEPGCSV [RPT2] : is its protein stability index no less than 3?
**Result** n

**Query** Is it the case that LRFGEGASGEERLMSRP [PUP2] has protein stability index reaching or exceeding 3?
**Result** y

**Query** hey, is protein stability index for this one >= 3? TKRWYKNAGLGFKTPKT [RPS11A]
**Result** y

**Query** Tell me whether protein stability index is at least 3 here: VEVCLADLQGSEDHSFR [RPS1A]
**Result** y

**Query** Hello, I need to know if NLGEYESAVKYALAAKD [RPN2] has measured protein stability index not below 3. Thanks!
**Result** n

**Query** Please check the record REVENSVSLLNSDIANL [SMC1] and state if its protein stability index is at or above 3.
**Result** n

**Query** Is it the case that KNDSAEVRQETQPKAEA [NUT1] has protein stability index reaching or exceeding 3?
**Result** y

---

- Test name: protein stability index of a GFP-peptide fusion (yeast GPS) (PSI 1-4); higher = more stable; sorted into four equal gates, so the index is relative within each strain
- Condition: doa10∆
Kindly supply the reported protein stability index values for the records listed here.
One number for each entry.

Consider the worked cases shown below.
Sequence	protein stability index
STGDYTFTIQLLKLTKV [YML103C/NUP188]	1.58
LKFNHGNYSHLMEKNRI [REC8]	2.06
LVLPPVVTSSVAESFTD [SNF2]	2.13
WRILKEDYAIVTKGGTV [PRP28]	3.47
TFLVSNDDEVSQFCYVS [RPN14]	2

Batch: protein stability index for all items listed.
1. PAEHPFISAARYKPKSH [RPC37]
2. CHLYSQRMHAIHEIDER [NNF1]

**Result**
1. 2.99
2. 1.24

---

- Test name: protein stability index of a GFP-peptide fusion (yeast GPS) (PSI 1-4); higher = more stable; sorted into four equal gates, so the index is relative within each strain
- Condition: san1∆
Please mark MET if the recorded protein stability index is equal to or greater than 3, and NOT MET if it falls below.

Sequence	Class
HDAPRGLFPFESYKPSV [SWI3]	MET
QLNCIDTQFTKLLDDNP [SRB8]	NOT MET
EKDLEHWLQLAKGVYRP [POP1]	MET

**Query** API: above_or_equal(metric=protein stability index, cutoff=3) for item YSKIPNILSNKPGQNNR [RRP6]
**Result** NOT MET

**Query** Decide: protein stability index of QFLQLDNDGFSFLMRQF [ECM29] >= 3?
**Result** NOT MET

**Query** Please indicate if the recorded protein stability index for DRELNEVINQMERLDGD [SMC3] meets or exceeds 3.
**Result** MET

**Query** Does FTYNKFLLNQNKQLSQS [YIL149C/MLP2] have a reported protein stability index of at least 3?
**Result** MET

**Query** Can DAAAEKRNGDEVYTLVD [ARP7] be said to have protein stability index at or above 3?
**Result** MET

**Query** Hi team, for NTNNNNNPANNTNNNNS [SWI1] , is the recorded protein stability index at or above 3?
**Result** MET

**Query** Quick check, protein stability index >= 3? ETEKFALERNWPIVNSK [RPN12]
**Result** MET

**Query** Hi team, for NEKSQAEQEKAKNIISN [LRP1] , is the recorded protein stability index at or above 3?
**Result** NOT MET

**Query** Does the sequence WNRADNHFKDTYGFSIL [FAS1] have recorded protein stability index that is 3 or more?
**Result** MET

---

- Test name: protein stability index of a GFP-peptide fusion (yeast GPS) (PSI 1-4); higher = more stable; sorted into four equal gates, so the index is relative within each strain
- Condition: doa10∆
protein stability index below 3 gives -1; protein stability index at or above it gives 1.

Sequence	Class
AFYQKGNKLVELMRIIS [SMC1]	-1
KDSNKDVVVEGLRRARY [RPL10]	1
HLLVQLQKNDVYAFKAK [REC8]	1
GSNKAQISIIDIWSISK [YML031W/NDC1]	-1

Okay, now this sequence:
**Query** Does the sequence SQFNGSGNGSNPNTNTN [PGD1] have recorded protein stability index that is 3 or more?
**Result** -1

---

- Test name: protein stability index of a GFP-peptide fusion (yeast GPS) (PSI 1-4); higher = more stable; sorted into four equal gates, so the index is relative within each strain
- Condition: san1∆
Endpoint name: protein stability index
Numbers only.

Sequence	protein stability index
YDPIKRIDAFNALEHKY [SSN3]	2.73
MDIILGIRVQDSVILAS [PRE1]	1.71
HDLLQIIHFHSHPEKRM [SSN3]	2.65
KGHKFNNTKAGRRKTWK [RPL15A]	2.8
NNTNTGASGVDDFQNFF [SWI1]	2.87
RAPIYHSKFRSSSGNTW [YML031W/NDC1]	3.15

// input: 4 sequences below; output: protein stability index for each
1. SVALHRHSNALVDILPP [RPT3]
2. RFVMPNQLLAALVAYTP [RRP6]
3. ANSQIQAYEEIISSNEN [YIL149C/MLP2]
4. VRSAEYYAKKRAFTKKV [RPL16B]

**Result**
1. 2
2. 1.39
3. 3.31
4. 2.61

---

- Test name: protein stability index of a GFP-peptide fusion (yeast GPS) (PSI 1-4); higher = more stable; sorted into four equal gates, so the index is relative within each strain
- Condition: ubr1∆
Consider the following sequences; for each one, report its protein stability index.
One number for each entry.

Example results:
Sequence	protein stability index
TVTNSKFRSSILRKSFD [RPN2]	3.31
VKGTNISEKDLVPKRCL [RPO31]	3.12
GMIVISMENYHLLIKII [SRB8]	2.66
QSKIDLTKKKNEEINKK [SEM1]	3.21
KYKQLLLKDDTYQLCVR [RPN3]	1.6

Need protein stability index for each of these sequences.
1. QQIWKSPNFKNYLKYLE [SOH1]
2. IIFNYVPGPGTKLIQYE [CSL4]
3. NGVPGQALDAVRMRLAQ [MED8]

**Result**
2.22
2.84
1.26

All values here come from the supplement of paper PMC9732359.
